Molecular target: UDP-3-O-acyl-N-acetylglucosamine deacetylase (Pseudomonas aeruginosa (strain ATCC 15692 / PAO1 / 1C / PRS 101 / LMG12228), UniProt P47205)
Sequence (P47205 whole entry): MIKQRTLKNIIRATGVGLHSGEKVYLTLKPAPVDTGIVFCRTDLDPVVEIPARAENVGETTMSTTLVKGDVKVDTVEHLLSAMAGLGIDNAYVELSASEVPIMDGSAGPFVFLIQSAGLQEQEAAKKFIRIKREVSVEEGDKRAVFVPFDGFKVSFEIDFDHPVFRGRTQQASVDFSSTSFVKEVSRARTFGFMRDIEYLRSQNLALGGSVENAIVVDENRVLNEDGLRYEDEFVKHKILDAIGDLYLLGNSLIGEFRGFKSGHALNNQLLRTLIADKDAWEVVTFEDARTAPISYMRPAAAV
Assay: At the end of 1 hour, 5 ul of 1N HCl was added to stop the enzyme reaction; the plates were centrifuged, and then processed with the BioTrove Rapidfire HTMS Mass Spectrometry System.
Form field: IC50 (one value per entry).
property label: IC50 (nM)

> print(dat)
                                    compound  property.label  recorded.value
 1  Cc1cc(C)cc(COc2ccc(CCC(C)(C(=O)NO)S(C)(=O)=O)cc2)c1 (stereo not given)            IC50             4.5
 2  CC(CCc1ccc(OCCCOCc2ccccc2)cc1)(C(=O)NO)S(C)(=O)=O (stereo not given)            IC50            21.1
 3  CCC(c1ccccc1)c1noc(COc2ccc(CCC(C)(C(=O)NO)S(C)(=O)=O)cc2)n1 (stereo not given)            IC50            20.5
 4  CC(CCc1ccc(OCc2ccc3ccccc3n2)cc1)(C(=O)NO)S(C)(=O)=O (stereo not given)            IC50            13.9
 5  Cc1ccc(C)c(COc2ccc(CCC(C)(C(=O)NO)S(C)(=O)=O)cc2)c1 (stereo not given)            IC50            4.25
 6  Cc1ccc(COc2ccc(CCC(C)(C(=O)NO)S(C)(=O)=O)cc2)cc1 (stereo not given)            IC50            1.02
 7  COc1ccc(F)c(-c2noc(COc3ccc(CCC(C)(C(=O)NO)S(C)(=O)=O)cc3)n2)c1 (stereo not given)            IC50            6.39
 8  CCCCCCOc1ccc(CCC(C)(C(=O)NO)S(C)(=O)=O)cc1 (stereo not given)            IC50            6.31
 9  CC(CCc1ccc(OCc2cccc(Cl)c2)cc1)(C(=O)NO)S(C)(=O)=O (stereo not given)            IC50            1.32
10  CC(CCc1ccc(OCc2nc3ccccc3s2)cc1)(C(=O)NO)S(C)(=O)=O (stereo not given)            IC50           0.651
